Recorded GI50, one value per entry.
# Tested on: BT-549 breast
# MEASUREMENT PROTOCOL: NCI tumour cell line growth inhibition, 48 h

>  <MOLECULE>
ClCCN(CCCl)c1ccc(CNc2ccccc2)cc1

>  <GI50>
7.2 µM

$$$$
>  <MOLECULE>
Cn1cc(-c2csc(-c3cn(CCCCN4CCCCC4)c4ccccc34)n2)c2cccnc21

>  <GI50>
1.75 µM

$$$$
>  <MOLECULE>
N=C(N)c1ccc(-c2ccc(-c3cccs3)s2)cc1

>  <GI50>
3.77 µM

$$$$
>  <MOLECULE>
COc1ccc(/C(C)=C(\c2ccc(OCCN3CCCCCC3)cc2)c2ccc(OC(=O)C3CCCCC3)cc2)cc1

>  <GI50>
1.53 µM

$$$$
>  <MOLECULE>
Nc1cc(Br)c(-c2nnc(CCC(=O)c3nc4ccccc4[nH]3)o2)c(Br)c1

>  <GI50>
6.82 µM

$$$$
>  <MOLECULE>
CC1(C)CN=C(NN=C(/C=C/c2ccc(C(F)(F)F)cc2)/C=C/c2ccc(C(F)(F)F)cc2)NC1

>  <GI50>
1.74 µM

$$$$
>  <MOLECULE>
CCCCCCCCCCNC(=O)CI

>  <GI50>
1.73 µM

$$$$
>  <MOLECULE>
CC(C)(C)[Si](C)(C)OC1[C@@H](CNC(=O)NC(=O)CCl)O[C@@H](n2cnc3c(N)ncnc32)[C@H]1O[Si](C)(C)C(C)(C)C (stereo partly drawn)

>  <GI50>
0.869 µM

$$$$
>  <MOLECULE>
O=C1Nc2ccccc2/C1=C1\CCc2cc(O)ccc21

>  <GI50>
8.47 µM

$$$$
>  <MOLECULE>
CCN(CC)CCCCCCNc1cccc2cc(Br)cnc12

>  <GI50>
10.1 µM

$$$$
>  <MOLECULE>
COc1cc2cc(Oc3ccc(NC(=O)c4cc(C(F)(F)F)cc(C(F)(F)F)c4)cc3)c(C)nc2cc1OC

>  <GI50>
3.02 µM

$$$$
>  <MOLECULE>
O=C1c2ccccc2-c2c1c1ccccc1c(=O)n2CCN1CCNCC1

>  <GI50>
4.96 µM

$$$$
>  <MOLECULE>
O=C(O)c1cccc(COc2ccc([N+](=O)[O-])cc2Cl)c1

>  <GI50>
53.4 µM

$$$$

---

# Tested on: SW-620 colon
# MEASUREMENT PROTOCOL: NCI tumour cell line growth inhibition, 48 h
MEASUREMENT TYPE: TGI

>  <MOLECULE>
COc1c(O)c2c3c(c(C)cc(O)c3c1O)C(=O)C(O)(C(C)(C)C(C)=O)C2=O (stereo not given)

>  <EXPERIMENTAL TARGET>
SW-620 colon

>  <MEASUREMENT TYPE>
TGI

>  <RESULT>
> 100 µM

$$$$
>  <MOLECULE>
O=C(NC(COC(=O)C(Cc1ccccc1)NC(=O)c1ccccc1)Cc1ccccc1)c1ccccc1 (stereo not given)

>  <EXPERIMENTAL TARGET>
SW-620 colon

>  <MEASUREMENT TYPE>
TGI

>  <RESULT>
> 50 µM

$$$$
>  <MOLECULE>
CCCC/C(=C\C1=C(C)C(=O)C(OC)=C(OC)C1=O)C(=O)O

>  <EXPERIMENTAL TARGET>
SW-620 colon

>  <MEASUREMENT TYPE>
TGI

>  <RESULT>
> 100 µM

$$$$
>  <MOLECULE>
CC(C)c1[nH]nc2c1N=C(c1ccccc1Cl)c1cc([N+](=O)[O-])ccc1N2

>  <EXPERIMENTAL TARGET>
SW-620 colon

>  <MEASUREMENT TYPE>
TGI

>  <RESULT>
> 25 µM

$$$$
>  <MOLECULE>
C/C1=C\CC[C@@]2(C)O[C@@H]2C[C@@H](C2(C)CO2)CC/C(C)=C/CC1 (stereo not given in full)

>  <EXPERIMENTAL TARGET>
SW-620 colon

>  <MEASUREMENT TYPE>
TGI

>  <RESULT>
> 100 µM

$$$$

Origin of values: PubChem BioAssay (NCI)
